# testedTarget: PAPD5 (Homo sapiens, UniProt Q8NDF8)
# Construct: made in house
# Sequence (Q8NDF8 68-698 isoform Q8NDF8-5): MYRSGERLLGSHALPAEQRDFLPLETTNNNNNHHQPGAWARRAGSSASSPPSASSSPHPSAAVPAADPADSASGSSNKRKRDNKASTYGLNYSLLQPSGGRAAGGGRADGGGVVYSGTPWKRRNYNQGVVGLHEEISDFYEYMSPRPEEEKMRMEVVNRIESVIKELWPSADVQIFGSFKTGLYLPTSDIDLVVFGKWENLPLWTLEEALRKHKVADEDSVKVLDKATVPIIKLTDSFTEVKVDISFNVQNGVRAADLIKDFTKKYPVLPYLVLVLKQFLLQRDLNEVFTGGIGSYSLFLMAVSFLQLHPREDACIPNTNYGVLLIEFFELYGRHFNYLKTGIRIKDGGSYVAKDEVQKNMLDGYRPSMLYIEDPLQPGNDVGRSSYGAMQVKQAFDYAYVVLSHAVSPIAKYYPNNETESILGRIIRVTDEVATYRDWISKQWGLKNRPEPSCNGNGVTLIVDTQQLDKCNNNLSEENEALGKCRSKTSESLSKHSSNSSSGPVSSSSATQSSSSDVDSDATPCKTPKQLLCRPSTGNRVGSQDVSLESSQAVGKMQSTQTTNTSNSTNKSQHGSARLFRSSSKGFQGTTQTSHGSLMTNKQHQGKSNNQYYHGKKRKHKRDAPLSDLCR
# assayComment: High-throughput luminescence (KinaseGlo) RNA polyadenylation assay, ATP utilization by recombinant PAPD5
# Format: biochemical
# recordedConditions: Table 4 (entries of Table 5); 33 μM compound; ratio of luminescence with inhibitor to DMSO
measuredParameter: Fold-change determined at compound concentration 33 μM

Cc1ccc(CNC(=O)Nc2cn(CC(C)C)c(=O)c3ccccc23)cc1 [Entry 57]	1.142
COc1ccc(OC)c(NC(=O)Cc2c(C(=O)O)[nH]c3ccc(Cl)cc23)c1 [Entry 109]	1.076
COCc1c(Br)c(C)nc2sc3c(=O)n(-c4ccccc4C(=O)OC)nnc3c12 [Entry 167]	1.413
O=c1cc(-c2cccc3c2Sc2ccccc2S3)oc(N2CCOCC2)c1 [Entry 243]	1.324
COc1cccc(CNC(=O)Nc2cn(CC(C)C)c(=O)c3ccccc23)c1 [Entry 60]	1.088
CCc1nc2[nH]c(-c3ccc(C)cc3)cc(=O)n2n1 [Entry 158]	1.13
CCCCN(C)c1cc(C(=O)O)c2cc(NC(=O)c3ccccc3OC)ccc2n1 [Entry 31]	1.304
CC1CCN(C(=O)CSc2nc3c(c(=O)n2Cc2ccccc2)SCC3)CC1 [Entry 232]	1.198
Cn1c(=O)c2nc(SCC(=O)O)n(CCc3ccccc3)c2n(C)c1=O [Entry 79]	1.164
c1cc(OCCN2CCCCC2)cc(-c2n[nH]c3ccc(-c4ncn[nH]4)cc23)c1 [Entry 160]	1.075
COc1ccc(OC)c2sc(N(CCCN(C)C)C(=O)c3ccco3)nc12 [Entry 207]	1.118
COc1ccc(Br)cc1[C@@H]1Nc2ccc(C(=O)O)cc2[C@@H]2C=CC[C@@H]21 [Entry 99]	1.233
O=c1c2sccc2n2c(=S)[nH]nc2n1Cc1ccccc1 [Entry 75]	1.11
CC1=NCCc2c1[nH]c1ccccc21 [Entry 113, 1-Methyl-4,9-dihydro-3H-beta-carboline]	1.202
CCc1cccc(NC(=O)Nc2cn(C)c(=O)c3ccccc23)c1 [Entry 61]	1.07
Cc1cc2[nH]c(=O)c(=O)[nH]c2cc1S(=O)(=O)Nc1ccc(OC(F)(F)F)cc1 [Entry 137]	1.12
Cn1c(=O)c2nc(SCC(=O)O)n(Cc3ccccc3)c2n(C)c1=O [Entry 80]	1.164
CCn1c(SCC(=O)O)nc2c(=O)n(C)c(=O)n(C)c21 [Entry 77]	1.142
